B1: library; a variant is named by its letters at N, in order (parent)
chain: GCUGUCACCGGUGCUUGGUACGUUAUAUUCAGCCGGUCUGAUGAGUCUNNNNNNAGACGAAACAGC

variants of: B1; assay: normalized RNA/DNA level with ligand (relative to sTRSVctl = 100) (log10 (% of sTRSVctl)); HEK293T overexpressing SLC46A1; ligand concentration (+) RNA-Seq: 6 mM; higher = less ribozyme self-cleavage, higher mRNA level; conditions: with (6R,S)-folinic acid; ligand present: yes
property.label: normalized RNA/DNA level with ligand (log10)

# construct.sequence, recorded.result
records = [
    ("GCUGUCACCGGUGCUUGGUACGUUAUAUUCAGCCGGUCUGAUGAGUCUUAAGUUAGACGAAACAGC [UAAGUU]", 2.01),
    ("GCUGUCACCGGUGCUUGGUACGUUAUAUUCAGCCGGUCUGAUGAGUCUGUUGGAAGACGAAACAGC [GUUGGA]", 2.02),
    ("GCUGUCACCGGUGCUUGGUACGUUAUAUUCAGCCGGUCUGAUGAGUCUCCGCCUAGACGAAACAGC [CCGCCU]", 2.08),
    ("GCUGUCACCGGUGCUUGGUACGUUAUAUUCAGCCGGUCUGAUGAGUCUCCUAAUAGACGAAACAGC [CCUAAU]", 2.07),
    ("GCUGUCACCGGUGCUUGGUACGUUAUAUUCAGCCGGUCUGAUGAGUCUUCUGCAAGACGAAACAGC [UCUGCA]", 2.06),
    ("GCUGUCACCGGUGCUUGGUACGUUAUAUUCAGCCGGUCUGAUGAGUCUUGUGGGAGACGAAACAGC [UGUGGG]", 1.96),
    ("GCUGUCACCGGUGCUUGGUACGUUAUAUUCAGCCGGUCUGAUGAGUCUGCGUACAGACGAAACAGC [GCGUAC]", 2.02),
    ("GCUGUCACCGGUGCUUGGUACGUUAUAUUCAGCCGGUCUGAUGAGUCUGUGGACAGACGAAACAGC [GUGGAC]", 1.98),
    ("GCUGUCACCGGUGCUUGGUACGUUAUAUUCAGCCGGUCUGAUGAGUCUAGUGUCAGACGAAACAGC [AGUGUC]", 2),
    ("GCUGUCACCGGUGCUUGGUACGUUAUAUUCAGCCGGUCUGAUGAGUCUAGCCAAAGACGAAACAGC [AGCCAA]", 1.99),
    ("GCUGUCACCGGUGCUUGGUACGUUAUAUUCAGCCGGUCUGAUGAGUCUCUAAACAGACGAAACAGC [CUAAAC]", 1.99),
    ("GCUGUCACCGGUGCUUGGUACGUUAUAUUCAGCCGGUCUGAUGAGUCUGUUGAUAGACGAAACAGC [GUUGAU]", 2),
]

Data provenance: the supplement of paper PMC6757056
